# credit: patent US8846363B2

SYSTEM_NAME: Flavobacterium heparinum 6-O-sulfatase (ORF B), recombinant, NH2-terminal truncation lacking signal sequence, SEQ ID NO: 2 (Pedobacter heparinus)
Construct: E. coli BL21(DE3), N-terminal 6xHis removed by thrombin
Sequence (C6Y1N4 entry or part of it): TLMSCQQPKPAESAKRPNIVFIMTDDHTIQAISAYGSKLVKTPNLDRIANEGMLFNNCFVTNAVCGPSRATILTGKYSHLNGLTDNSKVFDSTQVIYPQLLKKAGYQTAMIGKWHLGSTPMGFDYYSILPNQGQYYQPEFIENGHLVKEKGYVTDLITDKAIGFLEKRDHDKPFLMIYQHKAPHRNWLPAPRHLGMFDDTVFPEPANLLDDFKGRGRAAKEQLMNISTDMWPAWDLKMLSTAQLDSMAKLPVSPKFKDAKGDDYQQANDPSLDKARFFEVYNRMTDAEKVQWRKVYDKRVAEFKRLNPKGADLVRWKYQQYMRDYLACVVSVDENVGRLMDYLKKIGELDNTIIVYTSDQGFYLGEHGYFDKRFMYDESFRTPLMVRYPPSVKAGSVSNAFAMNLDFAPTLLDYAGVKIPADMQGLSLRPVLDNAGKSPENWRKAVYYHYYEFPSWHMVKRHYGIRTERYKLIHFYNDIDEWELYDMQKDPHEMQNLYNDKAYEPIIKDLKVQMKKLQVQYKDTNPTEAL
ASSAY_TEXT: Inhibition of 6-O-sulfatase activity (sulfate, phosphate, chelators)
MEASUREMENT_CONTEXT: normalized to 0 sulfate or phosphate added; read-out: concentration for 50% inhibition of 6-O-sulfatase activity

>  <COMPOUND>
O=S(=O)(O)O [sulfate]

>  <IC50>
~20 mM

$$$$
